# assayedTarget: UniProt:P56159
# Sequence (P56159 whole entry): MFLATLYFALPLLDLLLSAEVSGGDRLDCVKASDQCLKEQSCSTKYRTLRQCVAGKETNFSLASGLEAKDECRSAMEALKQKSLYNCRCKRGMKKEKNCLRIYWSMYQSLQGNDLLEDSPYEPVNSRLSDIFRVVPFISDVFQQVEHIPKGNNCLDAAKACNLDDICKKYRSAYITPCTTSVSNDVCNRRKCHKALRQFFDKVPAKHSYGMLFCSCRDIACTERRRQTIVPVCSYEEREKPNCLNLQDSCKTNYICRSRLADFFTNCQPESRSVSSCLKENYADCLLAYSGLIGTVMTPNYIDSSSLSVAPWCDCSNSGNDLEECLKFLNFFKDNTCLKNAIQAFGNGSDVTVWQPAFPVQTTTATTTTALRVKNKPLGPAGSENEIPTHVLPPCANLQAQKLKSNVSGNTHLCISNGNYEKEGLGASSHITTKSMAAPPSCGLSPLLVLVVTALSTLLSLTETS
# testDetails: Inhibition of GFRalpha1 (unknown origin) assessed as maximal efficacy relative to control
measurementKind: Emax (%)

Past entries and their recorded results:
* O=C(O)Cc1cccc(O[C@H]2CCc3cc(-c4cnc(Nc5ccccc5)nc4)ccc32)c1 | 0
* CNC(=O)Cc1cccc(O[C@H]2CCc3cc(-c4cnc(Nc5ccccc5)nc4)ccc32)c1 | 0
* CNC(=O)[C@@H](Cc1c[nH]cn1)NC(=O)Cc1cccc(O[C@H]2CCc3cc(-c4cnc(Nc5ccccc5)nc4)ccc32)c1 | 97
* CNC(=O)[C@H](NC(=O)Cc1cccc(O[C@@H]2Cc3ccc(-c4cnc(Nc5ccccc5)nc4)cc3C2)c1)C1CCCCC1 (racemic) | 86

I. CNC(=O)[C@H](NC(=O)Cc1cccc(O[C@H]2CCc3cc(-c4cnc(Nc5ccccc5)nc4)ccc32)c1)C1CCCCC1
II. NC(=O)[C@H](NC(=O)Cc1cccc(O[C@H]2CCc3cc(-c4ncc(Nc5ccccc5)cn4)ccc32)c1)C1CCCCC1
In terms of reported Emax, does I or II have the smaller number? Field: selected label. Fill in the label of the entry you choose.
I
